Consider the following compounds; for each one, report its inhibition.
biological target: Ribosomal protein S6 kinase alpha-5 (Homo sapiens); experiment: Inhibition of MSK1 (unknown origin) at 30 uM by microfluidic mobility shift assay relative to control
Sequence (O75582 whole entry, looked up): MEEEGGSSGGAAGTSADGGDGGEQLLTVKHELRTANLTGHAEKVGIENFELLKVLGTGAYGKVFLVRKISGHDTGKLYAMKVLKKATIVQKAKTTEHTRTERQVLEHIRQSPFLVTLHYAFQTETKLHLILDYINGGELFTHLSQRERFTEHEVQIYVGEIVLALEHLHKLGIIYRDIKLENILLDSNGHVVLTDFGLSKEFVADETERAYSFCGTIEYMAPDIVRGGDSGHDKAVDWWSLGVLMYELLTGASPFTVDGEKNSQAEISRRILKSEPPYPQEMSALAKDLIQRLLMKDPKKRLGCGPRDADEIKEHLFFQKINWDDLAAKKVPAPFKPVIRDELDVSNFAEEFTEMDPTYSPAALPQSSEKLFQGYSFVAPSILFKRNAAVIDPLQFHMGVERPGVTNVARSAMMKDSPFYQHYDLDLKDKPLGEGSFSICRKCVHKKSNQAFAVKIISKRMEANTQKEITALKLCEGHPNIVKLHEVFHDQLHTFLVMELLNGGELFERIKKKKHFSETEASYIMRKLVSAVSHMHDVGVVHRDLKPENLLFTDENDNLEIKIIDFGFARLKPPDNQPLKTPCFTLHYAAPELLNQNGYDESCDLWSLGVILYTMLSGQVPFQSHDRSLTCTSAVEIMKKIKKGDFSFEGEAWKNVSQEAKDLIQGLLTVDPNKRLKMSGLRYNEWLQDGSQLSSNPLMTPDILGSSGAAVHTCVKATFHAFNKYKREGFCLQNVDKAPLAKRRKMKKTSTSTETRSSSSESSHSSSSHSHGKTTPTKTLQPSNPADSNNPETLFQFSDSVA
Give bare numbers, in %.

c1nc(N2CCC3(CCCN3)CC2)c2nc[nH]c2n1 ... 95
c1nc(N2CCCC3(CCNCC3)C2)c2nc[nH]c2n1 ... 89
OC1CCNC2(CCN(c3ncnc4[nH]cnc34)CC2)C1 (racemic) ... 93

Items follow; give inhibition for each.
1. OCC1CCC2(CCN(c3ncnc4[nH]cnc34)CC2)NC1 (racemic)
2. O=S(=O)(c1cccc2cnccc12)N1CCC2(CCNC2)CC1
3. c1nc(N2CCCC23CCNCC3)c2nc[nH]c2n1
4. COC(=O)C1CCC2(CCN(c3ncnc4[nH]cnc34)CC2)NC1 (racemic)
5. O=S(=O)(c1cccc2cnccc12)N1CCC2(CCC(O)CN2)CC1 (racemic)
6. O=S(=O)(c1cccc2cnccc12)N1CCCC12CCNCC2

Result block:
1: 88; 2: 41; 3: 13; 4: 48; 5: 89; 6: 47

Hello, I would appreciate it if you could give inhibition for each entry below.
1. c1ccc(C2CCNC3(CCN(c4ncnc5[nH]cnc45)CC3)C2)cc1 (racemic)
2. O=C(O)C1CCC2(CCN(c3ncnc4[nH]cnc34)CC2)NC1 (racemic)

Result block:
97
51

----------
molecular target: Glycogen synthase kinase-3 beta (Homo sapiens, UniProt P49841); assay: Inhibition of GSK3beta (unknown origin) at 30 uM by microfluidic mobility shift assay relative to control
Sequence (P49841 whole entry, looked up): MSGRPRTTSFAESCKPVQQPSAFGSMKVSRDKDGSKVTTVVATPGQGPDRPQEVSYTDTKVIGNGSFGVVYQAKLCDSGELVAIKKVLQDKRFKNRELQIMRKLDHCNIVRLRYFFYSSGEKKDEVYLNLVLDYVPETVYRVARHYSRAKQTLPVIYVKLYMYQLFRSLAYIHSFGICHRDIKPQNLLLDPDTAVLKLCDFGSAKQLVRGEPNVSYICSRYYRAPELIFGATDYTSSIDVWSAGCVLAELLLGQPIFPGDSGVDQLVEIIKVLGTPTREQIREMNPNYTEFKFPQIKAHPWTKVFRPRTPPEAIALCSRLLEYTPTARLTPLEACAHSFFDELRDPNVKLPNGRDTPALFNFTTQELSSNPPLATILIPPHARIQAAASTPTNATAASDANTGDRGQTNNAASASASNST
Label label 1 when inhibition is at or above 30%; anything below gets label 0.

Here are 5 molecules together with their reported answers.
O=S(=O)(c1cccc2cnccc12)N1CCCC2(CCNCC2)C1 ... label 0
OC1CCC2(CCN(c3ncnc4[nH]cnc34)CC2)NC1 (racemic) ... label 1
O=C(C1CCC2(CCN(c3ncnc4[nH]cnc34)CC2)NC1)N1CCOCC1 (racemic) ... label 0
NC1(Cc2ccccc2)CCN(c2ncnc3[nH]cnc23)CC1 ... label 1
COC(=O)C1CCC2(CCN(c3ncnc4[nH]cnc34)CC2)NC1 (racemic) ... label 0

Query block: Please check the record `O=S(=O)(c1cccc2cnccc12)N1CCCC12CCNCC2` and state if its inhibition is at or above 30%.
Result block: label 0

Query block: Say whether c1nc(N2CCCC3(CCCNC3)C2)c2nc[nH]c2n1 (stereo unspecified) shows inhibition of 30% or more.
Result block: label 0

Query block: Please indicate if the recorded inhibition for `c1nc(N2CCC3(CCCNC3)CC2)c2nc[nH]c2n1` meets or exceeds 30%.
Result block: label 1

----------
target: RAC-beta serine/threonine-protein kinase (Homo sapiens, UniProt P31751); assay: Inhibition of AKT2 (unknown origin) at 30 uM by microfluidic mobility shift assay relative to control
Sequence (P31751 whole entry): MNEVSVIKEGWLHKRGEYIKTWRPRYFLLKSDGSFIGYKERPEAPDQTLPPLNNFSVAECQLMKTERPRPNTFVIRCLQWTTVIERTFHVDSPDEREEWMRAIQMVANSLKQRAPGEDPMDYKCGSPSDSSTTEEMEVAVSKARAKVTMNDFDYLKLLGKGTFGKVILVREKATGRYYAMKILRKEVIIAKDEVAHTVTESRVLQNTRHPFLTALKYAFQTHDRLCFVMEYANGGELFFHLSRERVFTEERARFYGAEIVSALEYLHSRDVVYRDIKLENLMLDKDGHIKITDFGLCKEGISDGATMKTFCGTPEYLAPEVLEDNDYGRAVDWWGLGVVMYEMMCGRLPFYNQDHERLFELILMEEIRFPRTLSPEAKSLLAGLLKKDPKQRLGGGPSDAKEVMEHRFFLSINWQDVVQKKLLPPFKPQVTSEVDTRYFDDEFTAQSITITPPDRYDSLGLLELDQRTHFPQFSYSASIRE
Param threshold (40%) applies to inhibition; output YES when value >= threshold, NO when value < threshold.

NC1(Cc2ccccc2)CCN(c2ncnc3[nH]cnc23)CC1 ... YES
c1ccc(CC2CCC3(CCN(c4ncnc5[nH]cnc45)CC3)NC2)cc1 (racemic) ... NO
O=S(=O)(c1cccc2cnccc12)N1CCCC2(CCCNC2)C1 (configuration not stated) ... NO
O=S(=O)(c1cccc2cnccc12)N1CCC2(CCCCN2)CC1 ... NO
c1ccc(C2CCNC3(CCN(c4ncnc5[nH]cnc45)CC3)C2)cc1 (racemic) ... YES

Query block: Assess whether reported inhibition for `c1nc(N2CCC3(CCCOC3)CC2)c2nc[nH]c2n1` sits at 40% or higher.
Result block: NO

Query block: Is reported inhibition greater than or equal to 40% here: `O=S(=O)(c1cccc2cnccc12)N1CCC2(CCCNC2)CC1`
Result block: NO

Query block: Record c1ccc(CC2CCNC3(CCN(c4ncnc5[nH]cnc45)CC3)C2)cc1 (racemic) ; criterion: inhibition no lower than 40%. Met?
Result block: YES

Query block: Does the compound `c1nc(N2CCC3(CCCCN3)CC2)c2nc[nH]c2n1` have recorded inhibition that is 40% or more?
Result block: YES

Query block: inhibition >= 40% for COC(=O)C1CCC2(CCN(c3ncnc4[nH]cnc34)CC2)NC1 (racemic) ?
Result block: NO

Query block: Decide: is the reported value of inhibition for `c1nc(N2CCC3(CCCNC3)CC2)c2nc[nH]c2n1` equal to or greater than 40%?
Result block: YES

Query block: Reported inhibition reaches at least 40% for `O=S(=O)(c1cccc2cnccc12)N1CCCC12CCNCC2` ?
Result block: NO

Query block: Answer whether inhibition of `O=S(=O)(c1cccc2cnccc12)N1CCC2(CCCN2)CC1` is greater than or equal to 40%.
Result block: NO

Query block: Textbook exercise: given the entry `O=S(=O)(c1cccc2cnccc12)N1CCCC2(CCNCC2)C1` , state whether its inhibition is greater than or equal to 40%.
Result block: NO

Query block: Dear colleague, could you confirm whether `NC1(Cc2ccccc2)CCN(S(=O)(=O)c2cccc3cnccc23)CC1` has inhibition at or above 40%?
Result block: NO

Query block: In plain terms: is recorded inhibition at least 40% for `c1nc(N2CCCC23CCNCC3)c2nc[nH]c2n1` ?
Result block: NO

Query block: Say whether O=C(O)C1CCC2(CCN(c3ncnc4[nH]cnc34)CC2)NC1 (racemic) shows inhibition of 40% or more.
Result block: NO

Query block: Hi, just wondering whether `c1nc(N2CCC3(CCCCC3)CC2)c2nc[nH]c2n1` shows inhibition of 40% or higher.
Result block: NO

Query block: Would you say OCC1CCC2(CCN(c3ncnc4[nH]cnc34)CC2)NC1 (racemic) shows inhibition at minimum 40%?
Result block: NO

Query block: Reported inhibition reaches at least 40% for `c1nc(N2CCC3(CCCN3)CC2)c2nc[nH]c2n1` ?
Result block: YES

----------
Parameter 'readout' = IC50; parameter 'system' = Glycogen synthase kinase-3 beta (Homo sapiens, UniProt P49841).
Answers are plain numbers, in µM.

c1nc(N2CCC3(CCCCN3)CC2)c2nc[nH]c2n1 ... 138

Proceed to the following item.
Query block: Lookup: IC50 / Glycogen synthase kinase-3 beta (Homo sapiens, UniProt P49841) / `c1nc(N2CCC3(CCCNC3)CC2)c2nc[nH]c2n1`
Result block: 55

----------
molecular target: Ribosomal protein S6 kinase alpha-5 (Homo sapiens); assay: Inhibition of MSK1 (unknown origin) at 30 uM by microfluidic mobility shift assay relative to control
So basically every entry gets a class from its inhibition, ranges being low interval = under 50%, middle interval = from 50% up to 80%, high interval = 80% and over

Reference set, count: 3
c1ccc(CC2CCC3(CCN(c4ncnc5[nH]cnc45)CC3)NC2)cc1 (racemic) ... middle interval
O=S(=O)(c1cccc2cnccc12)N1CCCC2(CCNCC2)C1 ... low interval
NC1(Cc2ccccc2)CCN(c2ncnc3[nH]cnc23)CC1 ... middle interval

Query block: Could you tell me which band `c1nc(N2CCC3(CCCOC3)CC2)c2nc[nH]c2n1` belongs to?
Result block: low interval

Query block: Into which category would you place OC1CCC2(CCN(c3ncnc4[nH]cnc34)CC2)NC1 (racemic) ?
Result block: high interval

Query block: Returns: class label. Input: `c1nc(N2CCC3(CCCCN3)CC2)c2nc[nH]c2n1`
Result block: high interval

Query block: Which bin, given its inhibition, does `O=S(=O)(c1cccc2cnccc12)N1CCC2(CCCCN2)CC1` occupy?
Result block: middle interval

Query block: Each molecule maps to one class by inhibition. Which class for `O=S(=O)(c1cccc2cnccc12)N1CCC2(CCCNC2)CC1` ?
Result block: low interval

----------
Give measured inhibition for each item. Keep answers brief.
biological target: RAC-alpha serine/threonine-protein kinase (Homo sapiens, UniProt P31749); test: Inhibition of AKT1 (unknown origin) at 30 uM by microfluidic mobility shift assay relative to control
Sequence (P31749 whole entry): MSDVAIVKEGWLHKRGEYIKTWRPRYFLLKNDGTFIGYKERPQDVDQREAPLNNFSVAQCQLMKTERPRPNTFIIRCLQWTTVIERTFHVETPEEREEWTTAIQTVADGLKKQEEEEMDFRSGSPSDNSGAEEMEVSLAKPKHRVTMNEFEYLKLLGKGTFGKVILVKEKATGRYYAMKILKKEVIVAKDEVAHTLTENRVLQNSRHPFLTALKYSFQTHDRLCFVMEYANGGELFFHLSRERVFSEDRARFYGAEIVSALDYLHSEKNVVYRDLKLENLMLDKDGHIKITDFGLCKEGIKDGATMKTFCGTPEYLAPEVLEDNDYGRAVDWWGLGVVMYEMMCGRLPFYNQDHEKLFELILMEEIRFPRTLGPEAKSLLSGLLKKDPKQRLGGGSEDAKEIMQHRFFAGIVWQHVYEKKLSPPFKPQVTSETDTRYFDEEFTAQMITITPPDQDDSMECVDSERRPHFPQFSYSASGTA
One number for each entry, in %.

Reference set (8 entries):
O=S(=O)(c1cccc2cnccc12)N1CCC2(CCCCN2)CC1 ... 27
OC1CCC2(CCN(c3ncnc4[nH]cnc34)CC2)NC1 (racemic) ... 93
c1nc(N2CCC3(CCCCC3)CC2)c2nc[nH]c2n1 ... 16
c1nc(N2CCC3(CCCCO3)CC2)c2nc[nH]c2n1 ... 26
COC(=O)C1CCC2(CCN(c3ncnc4[nH]cnc34)CC2)NC1 (racemic) ... 61
OC1CCNC2(CCN(c3ncnc4[nH]cnc34)CC2)C1 (racemic) ... 94
c1nc(N2CCC3(CCCCN3)CC2)c2nc[nH]c2n1 ... 87
O=C(O)C1CCC2(CCN(c3ncnc4[nH]cnc34)CC2)NC1 (racemic) ... 40

Count: 3. Required value per item: inhibition.
1. c1nc(N2CCC3(CCCNC3)CC2)c2nc[nH]c2n1
2. c1nc(N2CCC3(CCCN3)CC2)c2nc[nH]c2n1
3. NC1(Cc2ccccc2)CCN(S(=O)(=O)c2cccc3cnccc23)CC1

Result block:
98
91
15
